Could you please report measured half-life for the items listed next?
Assay: Half life at pH 1.2
Assay type: ADME
Settings: buffer
A number alone suffices; assume days.

## Task What does the record list as half-life for Cc1cn([C@H]2C=C[C@@H](CO)O2)c(=O)[nH]c1=O ?
## Result 3

## Task What does the record list as half-life for Cc1cn([C@@H]2O[C@H](CO)c3ccccc32)c(=O)[nH]c1=O ?
## Result 18

====

Test: Half life at pH 2.0
Assay type: ADME
Conditions: buffer
parameter: half-life (days)
A number alone suffices; assume days.

## Task What does the record list as half-life for Cc1cn([C@H]2C=C[C@@H](CO)O2)c(=O)[nH]c1=O ?
## Result 5

## Task What does the record list as half-life for Cc1cn([C@@H]2O[C@H](CO)c3ccccc32)c(=O)[nH]c1=O ?
## Result 31
